Ref: the supplement of paper PMC7877785

# test-name: self-splicing fitness, log relative to wild type (ln ratio); higher = more splicing; Tetrahymena group I intron in knt gene, E. coli kanamycin selection, DiMSum; sequences stand for … in CUCUCU…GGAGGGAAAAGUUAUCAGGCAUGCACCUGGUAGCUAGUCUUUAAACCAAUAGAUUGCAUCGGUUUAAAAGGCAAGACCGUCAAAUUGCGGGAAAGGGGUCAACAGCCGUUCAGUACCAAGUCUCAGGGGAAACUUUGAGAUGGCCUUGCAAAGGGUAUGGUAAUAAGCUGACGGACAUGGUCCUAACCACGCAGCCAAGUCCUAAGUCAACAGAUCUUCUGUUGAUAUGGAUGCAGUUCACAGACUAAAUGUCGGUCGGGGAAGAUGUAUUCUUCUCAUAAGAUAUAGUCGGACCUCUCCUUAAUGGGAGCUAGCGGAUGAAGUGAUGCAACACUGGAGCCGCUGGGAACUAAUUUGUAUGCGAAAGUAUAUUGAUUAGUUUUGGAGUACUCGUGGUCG;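 also: selection with 25 µg/mL kanamycin versus none on LB agar overnight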
# applied-conditions: 37 °C
reported-metric: self-splicing fitness (ln)
Would you mind answering with just the numeric figure?

{"record-sequence": "UAUCAGCAAUAUUACGCUGG", "assay-value": -1.62}
{"record-sequence": "CUUUAGCAAUAUUACGGGCU", "assay-value": -1.66}
{"record-sequence": "CUACAGCAAUAUUACGCUCG", "assay-value": -1.46}
{"record-sequence": "UCGAAGCAAUAUUACGACAA", "assay-value": -1.07}
{"record-sequence": "UUACAGCAAUAUUACGAGAU", "assay-value": -1.69}
{"record-sequence": "GGAAAGCAAUAUUACGCUGU", "assay-value": -0.375}

INPUT: Consider the sequence shown here: `CGUUAGCAAUAUUACGGCUC` What is its recorded self-splicing fitness (ln)?
OUTPUT: 0.277

INPUT: Also need `GCAAAGCAAUAUUACGAAUG` , thanks.
OUTPUT: -1.77

====

# test-name: self-splicing fitness, log relative to wild type (ln ratio); higher = more splicing; Tetrahymena group I intron in knt gene, E. coli kanamycin selection, DiMSum; sequences stand for … in CUCUCU…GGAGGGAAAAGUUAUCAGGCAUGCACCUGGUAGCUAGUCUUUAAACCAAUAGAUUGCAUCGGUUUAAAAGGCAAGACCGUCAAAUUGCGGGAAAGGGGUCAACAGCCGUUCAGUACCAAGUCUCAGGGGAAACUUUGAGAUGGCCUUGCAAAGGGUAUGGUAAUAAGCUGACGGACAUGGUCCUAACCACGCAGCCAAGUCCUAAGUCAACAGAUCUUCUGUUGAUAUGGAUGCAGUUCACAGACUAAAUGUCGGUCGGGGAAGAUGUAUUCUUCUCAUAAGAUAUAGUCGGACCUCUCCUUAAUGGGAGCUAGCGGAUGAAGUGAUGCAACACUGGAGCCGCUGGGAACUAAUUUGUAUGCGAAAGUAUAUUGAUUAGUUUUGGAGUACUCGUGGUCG
# applied-conditions: 37 °C
Measured self-splicing fitness (ln) of individual entries
Would you mind answering with just the numeric figure?

Consider the worked cases shown below.
{"record-sequence": "GGUAAGCAAUAUUACGGCCG", "self-splicing fitness (ln)": -0.544}
{"record-sequence": "UUUAAGCAAUAUUACGCGGC", "self-splicing fitness (ln)": -2.78}
{"record-sequence": "GGCAAGCAAUAUUACGGUUG", "self-splicing fitness (ln)": -0.62}

INPUT: Consider the sequence shown here: `UAACAGCAAUAUUACGCUCC` What is its recorded self-splicing fitness (ln)?
OUTPUT: -1.22

INPUT: Also need `CCCGAGCAAUAUUACGAUUG` , thanks.
OUTPUT: -2.63
